- Assay Summary: NCI Yeast Anticancer Drug Screen. Data for the cln2 rad14 strain (AID 165);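 note: 0% = growth equal to vehicle treated cultures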
- Experimental Context: S. cerevisiae cln2 rad14 strain, at 50.0 µM (retest, dose inferred, filed as 5.0)
This is part of a sample that, as a whole, favours compounds with a hit. Of some 79,000 tested, about 15% had one in any assay. The source made the active and inactive calls. Cut-off read from the data, not from the text of the source: active = growth inhibition above about 70%; inactive = the rest.
Outcomes you can answer with include only these: y = active, n = inactive

IN: How was O=C(C(=Cc1ccccc1)C(=O)c1ccccc1)c1ccccc1 classified in this test?
OUT: y

IN: Record: O=C(Nc1ccc(Cl)cc1)c1ccccc1O
OUT: n

IN: O=c1cc[nH]cc1 ?
OUT: n

IN: Then what about the compound Nc1nc(=S)c2ncn(C3OC(CO)C(O)C3O)c2[nH]1 (configuration not stated) ?
OUT: n

IN: Likewise for Cc1ccc(NCCN(C)C)c2c(=O)c3cc(O)ccc3sc12 ?
OUT: y

IN: Please do the same for N#CC1(C2SCCS2=O)C2=C(C(=O)c3ccccc3C2=O)N2CCCC21 (configuration not stated) as well.
OUT: n

IN: Next record, please: COc1ccc2cc(C(C)=O)c3ccccc3c2c1
OUT: y

IN: Then OCC1OC(Sc2ncc[nH]2)C(O)C(O)C1O (configuration not stated) ?
OUT: n

IN: Then what about the compound C=C1C(=O)C23OC2C1CCC(=O)C1(C)CC[C@H](OC(C)=O)C(C)(C)[C@H]1CC3=O (some centres not stated) ?
OUT: n

IN: Another: CCCC(C)NCCOC(=O)C(c1ccccc1)C1CCCCC1 (configuration not stated)
OUT: n

IN: What do you get for COc1cc2c3c(c1)SCCC(=O)N3CCN2 ?
OUT: n

IN: Now this one: Cc1n(CC(C)C)c2c([n+]1C)C(=O)c1ccccc1C2=O
OUT: y

----------
- Assay Summary: NCI Yeast Anticancer Drug Screen. Data for the cln2 rad14 strain (AID 165);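 note: 0% = growth equal to vehicle treated cultures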
- Experimental Context: S. cerevisiae cln2 rad14 strain, at 50.0 µM (retest, dose inferred, filed as 5.0), hits give high values
About 79,000 compounds went through this panel and 15% of them were active in at least one assay; those are over-represented in the sample as a whole. Calls of active or inactive are those of the source. Cut-off read from the data, not from the text of the source: active = growth inhibition above about 70%; inactive = the rest. Where a SMILES comes first, the peptide text is derived from it. [ ]: non-standard residue; d: D form. ξ: configuration not given here. ξV = CC(C)C(N)C(=O)O
Record form. Attribute: growth inhibition. Fill in for each entry.

IN: Please give the measured growth inhibition for this molecule: Cc1nnc(S(=O)(=O)c2ccc(N=Nc3c(N)nc(N)nc3N)cc2)s1
OUT: 4% (inactive)

IN: Another molecule to look at: COc1ccc2c(c1)C(Cc1ccc(Oc3ccc(CC4c5cc(OC)ccc5CC[N+]4(C)C)cc3)cc1)[N+](C)(C)CC2 (stereo not given)
OUT: 54% (inactive)

IN: Same read-out for O=[N+]([O-])c1ccc(Cl)c(C2CC(c3cccc4ccccc34)=Nc3ccccc3S2)c1 (stereo not given) ?
OUT: 0% (inactive)

IN: Query CC(C)C(NC(=O)CN)C(=O)O (stereo not given) (H-Gly-[ξV]-OH) next
OUT: -60% (inactive)

IN: Next molecule: O=Nc1ccc(C=C2C(=O)C=CC2=O)cc1
OUT: 98% (active)

IN: Entry to check: C=C1C(=O)OC2CC(C)C3C4OC4C(O)C3(C)C(O)C12 (stereo not given)
OUT: -6% (inactive)

IN: Same thing, different molecule: CCSC(=NC)Nc1ccc(Oc2ccc(Cl)cc2)cc1
OUT: 75% (active)

IN: And for Oc1ccc(Cc2ccccc2)cc1 ?
OUT: -12% (inactive)

IN: Next record, please: Cc1ccccc1N=Nc1ccc(N=Nc2ccc(N)nc2N)c(C)c1
OUT: -27% (inactive)

IN: Request: Nc1ncnc2c(C3OC(CO)C(O)C3O)scc12 (stereo not given)
OUT: 5% (inactive)

IN: Query O/N=C(\CC(O)(C(F)(F)F)C(F)(F)F)c1cccc(Cl)c1 next
OUT: 95% (active)

IN: Another: Nc1cc2ccccc2cc1Br
OUT: 44% (inactive)

IN: What do we get for O=C1C=CC(=O)C(C2OC(=O)C(Br)=C2Br)=C1 (stereo not given) ?
OUT: -10% (inactive)

IN: Now give it for CCCCCCCCCCCCCCCCOP(=O)(O)OCC(NC(C)=O)C(=O)O (stereo not given) too.
OUT: 99% (active)

IN: Now this one: NNc1c2ccccc2nc2ccccc12
OUT: 38% (inactive)

IN: Next molecule up: Cc1cc(=O)[nH]c2ccc(Cc3ccc(N)cc3)cc12
OUT: -2% (inactive)

IN: One more molecule: O=C(/C=C/c1ccccn1)c1ccccc1
OUT: 11% (inactive)

IN: And what about the molecule CN(CCN1C(=O)c2cccc3cccc(c23)C1=O)CCN1C(=O)c2cccc3cccc(c23)C1=O ?
OUT: 90% (active)

IN: // repeat for Cc1cc(O)c(C(C)C)cc1Cl and report
OUT: 48% (inactive)

IN: Again, but for O=C(O)c1ccc(Nc2cnc3ccc(C(F)(F)F)cc3n2)cc1
OUT: 12% (inactive)

IN: Then Cn1c2ccccc2c(=O)c2ccccc21 ?
OUT: -2% (inactive)

IN: Now consider Clc1ccc(CNCCCNCc2ccc(Cl)cc2)cc1 and answer again.
OUT: 13% (inactive)

IN: Entry Cc1noc(-c2ccc([N+](=O)[O-])o2)n1 please
OUT: 57% (inactive)

IN: And what about the molecule CCOc1ccc2ccccc2c1C(Cc1ccc(Cl)cc1)NCCO (stereo not given) ?
OUT: -7% (inactive)

IN: And O=C1N(c2ccccc2)C(=O)N1c1ccccc1 ?
OUT: 17% (inactive)
